Test system: ivy-leaved morning glory (Ipomoea hederacea)
ASSAY_OVERVIEW: Test G Post-Emergence Protocol
Assay type: in vivo
CONDITION_PARAMETERS: Ipomoea, post-emergence, 312 h, 250 g ai/ha, evaluated after 13 days, 100=total damage to plant, 0=no damage to plant, read-out: Morningglory, Ivy-leaved damage rating
MEASURED_PARAMETER: pest or weed control at 250 g/ha (%)
Use % as the unit, but write only the number.

# count of solved cases: 2
CN1C[C@H](c2ccc(Cl)cc2)[C@@H](C(=O)Nc2cccnc2F)C1=O [Compound 1810]    20
Cc1cccc(NC(=O)[C@H]2C(=O)N(C)C[C@@H]2c2ccc(C(F)(F)F)cc2)[n+]1[O-] (racemic) [Compound 1805]    30

Turning now to a further compound:
# return recorded pest or weed control at 250 g/ha for entry CN1C[C@H](c2ccnc(C(C)(C)C)n2)[C@@H](C(=O)Nc2cccc(F)c2F)C1=O (racemic) [Compound 1769]
20

----------
Tested on: Galium (catchweed bedstraw, Galium aparine)
ASSAY_OVERVIEW: Test A postemergence
Assay type: in vivo
CONDITION_PARAMETERS: 125 g ai/ha, postemergence; visual injury rating on 0 to 100 scale (0 no effect, 100 complete control), approx. 10 d
Recorded Galium plant response rating by entry

# count of solved cases: 7
O=C1NCC(c2ccc(F)c(F)c2)C1C(=O)Nc1ccc(Cl)cc1F (centres unmarked) [Compound 410]    0
COc1cccc(NC(=O)C2C(=O)NCC2c2ccc(F)c(F)c2)c1F (centres unmarked) [Compound 416]    0
Cc1ccc(C2CNC(=O)C2C(=O)Nc2ccc(F)cc2F)c(F)c1 (racemic) [Compound 508]    0
CN1CC(c2ccc(C(F)(F)F)cc2F)C(C(=O)Nc2ccccc2F)C1=O (centres unmarked) [Compound 476]    30
Cc1cc(C2CNC(=O)C2C(=O)Nc2ccc(F)c(F)c2F)ccc1F (centres unmarked) [Compound 401]    50
C=C(C)CN1CC(c2cccc(C(F)(F)F)c2)C(C(=O)Nc2ccccc2F)C1=O (centres unmarked) [Compound 481]    0
CC(=O)Oc1cccc(C2CNC(=O)C2C(=O)Nc2cccc(F)c2F)c1 (centres unmarked) [Compound 432]    0

Turning now to a further compound:
Return reported Galium plant response rating for target or system Galium (catchweed bedstraw, Galium aparine), item O=C1NCC(c2cccc(OC(F)F)c2)C1C(=O)Nc1cccc(OC(F)F)c1 (centres unmarked) [Compound 422] .
30

----------
Tested on: ryegrass, Italian (Italian ryegrass, Lolium multiflorum)
ASSAY_OVERVIEW: Test A postemergence
Assay type: in vivo
CONDITION_PARAMETERS: Lolium multiflorum, post-emergence, 240 h, Postemergence, 500 g ai/ha; visual injury, 0 to 100 scale (0 no effect, 100 complete control), approx. 10 d; read-out: Plant response rating, Ryegrass, Italian
Text: […]
MEASURED_PARAMETER: pest or weed control at 500 g/ha (%)
Use % as the unit, but write only the number.

O=C1NC[C@H](c2cc(C(F)(F)F)ccn2)[C@H]1C(=O)Nc1cccc(F)c1F (racemic)    30
CN1C[C@H](c2ccc3c(c2)CCO3)[C@@H](C(=O)Nc2cccc(F)c2F)C1=O    50
CN1C[C@H](c2cccc(C(C)(F)F)c2)[C@@H](C(=O)Nc2ccc(F)cc2F)C1=O    60
CN1CC[C@H](c2cccc(C(F)(F)F)c2)[C@@H](C(=O)Nc2cccc(F)c2F)C1=O    20
CN1CC[C@H](c2cccc(C(F)(F)F)c2)[C@@H](C(=O)Nc2ccccc2F)C1=O    0

# return recorded pest or weed control at 500 g/ha for entry O=C1NC[C@H](c2cccc(C(F)(F)F)n2)[C@H]1C(=O)Nc1cccc(F)c1F
20

# return recorded pest or weed control at 500 g/ha for entry CN1C[C@H](c2ccc(C(F)(F)F)nc2)[C@@H](C(=O)Nc2cccc(F)c2F)C1=O
30
